Assay: beta-catenin nuclear localization change in HeLa – imaging, HeLa cells, immunofluorescence, high-content, primary screen (AID 1665);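 for nuclear translocation activity: per-cell ratio of nuclear to cytoplasmic median beta-catenin stain intensity; plate controls were DMSO negative control for no effect and GSK-3 inhibitor IX positive control for full effect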
Details: at 5 µM; stronger effect = higher value
The campaign covered roughly 190,000 compounds. About 590 (0.31%) were called active. Many of the other results were omitted from the sample, so actives are more common in it than they were.
READOUT_NAME: nuclear translocation activity

compound=Cc1ccc(NC(=O)/C(=C\c2ccccc2)NC(=O)c2ccco2)cc1 val="0.2% (inactive)"
compound="Cc1cc(=O)oc2cc(OCC3CC(c4ccccc4Cl)=NO3)ccc12 (stereo not drawn)" val="168% (active)"
compound=CCOC(=O)C1CCN(c2c(Nc3cc(C)cc(C)c3)c(=O)c2=O)CC1 val="0.9% (inactive)"

* * *

Catalogue of nuclear translocation activity readings, one per entry.
Experiment: beta-catenin nuclear localization change in HeLa – imaging, HeLa cells, immunofluorescence, high-content, primary screen (AID 1665);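 for nuclear translocation activity: per-cell ratio of nuclear to cytoplasmic median beta-catenin stain intensity; plate controls were DMSO negative control for no effect and GSK-3 inhibitor IX positive control for full effect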
Details: at 5 µM; stronger effect = higher value
In all, about 190,000 compounds went through this assay and about 590 (0.31%) were called active. The full list was thinned out, with actives kept by preference.
READOUT_NAME: nuclear translocation activity (%)

compound=Cc1ccc(C)c2[nH]c(=O)c(CN(Cc3cccnc3)C(=S)NCc3ccco3)cc12 val=-1.9
compound=Cc1cc2c(cc1C)N(Cc1ccccc1)C1=NCCCN12 val=-0.7
compound=CCOc1ccccc1NC(=O)CCc1ccc(C)o1 val=-2
compound=CN(C)/C=C(/C(=O)c1ccc(Cl)c(Cl)c1)c1nnnn1-c1ccccc1 val=0
compound=Nc1nonc1-c1nc2ccccc2n1Cc1ccc(F)cc1 val=-0.5
compound=COC(=O)c1sccc1NN1C(=O)c2ccccc2C1=O val=-1.9
compound="NS(=O)(=O)c1ccc(NC2=CC(c3ccc(F)cc3)N(c3ccc(S(N)(=O)=O)cc3)C2=O)cc1 (stereo not given)" val=0.9
compound=Cc1cc(CO)nn1-c1ccc([N+](=O)[O-])cc1 val=-2.5
compound=Cc1ccc(C(=O)NNC(=O)c2cccs2)cc1 val=-0.6
compound="O=C(NCC1CCCO1)c1ccccc1-c1nc(-c2ccccc2Cl)no1 (stereo not given)" val=0

* * *

Each entry below carries its recorded nuclear translocation activity.
Assay: beta-catenin nuclear localization change in HeLa – imaging, HeLa cells, immunofluorescence, high-content, primary screen (AID 1665);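 for nuclear translocation activity: per-cell ratio of nuclear to cytoplasmic median beta-catenin stain intensity; plate controls were DMSO negative control for no effect and GSK-3 inhibitor IX positive control for full effect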
Details: at 5 µM; stronger effect = higher value
The campaign covered roughly 190,000 compounds. About 590 (0.31%) were called active. This excerpt belongs to a sample that is enriched for actives.
READOUT_NAME: nuclear translocation activity (%)

compound=Cn1c(SCC(=O)N2CCOCC2)nnc1-c1ccc2ncccc2c1 val=0.1
compound="CC(C)Cc1ccc(C(C)C(=N)N)cc1 (stereo not given)" val=1.1
compound=COc1cccc(C2Nc3cccc4cccc(c34)N2)c1 val=-0.1
compound="Cc1ccc(S(=O)(=O)N2CCCC2CO)cc1 (stereo not given)" val=-0.4
compound=Cc1cc(=O)[nH]c(S)c1C#N val=-0.9
compound=O=C(Nc1cccnc1Oc1ncnc2cc(Cl)ccc12)c1ccc(F)cc1 val=-0.5
compound=COC(=O)c1cc(N2CCNCC2)nc2ccccc12 val=1.7
compound=O=C(Nc1nnc(CCN2CCCCC2)s1)c1cccc(Cl)c1 val=0.2
compound=COC(=O)c1ccccc1N=Nc1c(C)[nH][nH]c1=O val=-1.6
compound=O=C(N/N=C/c1cccc2cccnc12)[C@H]1C[C@@H]1c1ccccc1 val=2.9
compound=CN(NC(=O)c1ccccc1F)c1nc(C(F)(F)F)nc2ccccc12 val=155
compound=CN(NC(=O)c1ccccc1)c1nc2ccccc2nc1C(F)(F)F val=6.3
compound=NC(=O)N/N=C\c1cccs1 val=0.1
compound=CCOCCn1c(-c2ccccc2)nc2ccccc21 val=-0.7
compound=Cc1ccc(S(=O)(=O)NC(=O)N2CCCC(C)(C)C2)cc1 val=0.1
compound=COC(=O)c1ccc(S(=O)(=O)NCc2ccccc2)n1C val=0.3
compound=Brc1ccc(-c2nn[nH]n2)cc1 val=0.9
compound=COc1ccc(OCC(=O)NNC(=O)c2cccc(C)c2)cc1 val=-0.2
compound=Cc1cc(C)cc(OCC(=O)O/N=C(\N)Cc2ccc([N+](=O)[O-])cc2)c1 val=-2.4
compound=O=C(NCCN1CCN(Cc2ccccc2)CC1)c1cc2c(=O)[nH]c3ccccc3c2s1 val=-3.9
compound=Cc1c(C(=O)N(Cc2ccccc2)Cc2cccnc2)cnn1-c1ccc(F)cc1 val=0.4
compound="O=C(O)C(NS(=O)(=O)c1cccc2nsnc12)c1ccccc1 (stereo not given)" val=-1
compound=COc1ccc(NC(=O)c2cn(-c3ccccc3)nc2SC)cc1 val=0.1
compound=C=CCNC(=S)N1CCc2[nH]c3ccccc3c2C1 val=0.9
compound=COC(=O)c1sc(SC)c(S(=O)(=O)C(C)C)c1N/N=C(\C#N)S(=O)(=O)c1ccccn1 val=-2.6

* * *

Assay: beta-catenin nuclear localization change in HeLa – imaging, HeLa cells, immunofluorescence, high-content, primary screen (AID 1665);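 for nuclear translocation activity: per-cell ratio of nuclear to cytoplasmic median beta-catenin stain intensity; plate controls were DMSO negative control for no effect and GSK-3 inhibitor IX positive control for full effect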
Details: at 5 µM; stronger effect = higher value
Screen size: about 190,000 compounds; about 590 (0.31%) were called active. The entries come from a sample that favours actives as a whole.
# maps each entry to its nuclear translocation activity
READOUT_NAME: nuclear translocation activity (%)

compound=Cc1cc(C(=O)NNS(=O)(=O)c2ccccc2C(F)(F)F)nn1C(C)(C)C readout_name="nuclear translocation activity" val=-2.9
compound="Cc1cc(F)ccc1NC(=O)C(C)n1c2ccccc2c2nc(=O)cc(C)n21 (stereo not given)" readout_name="nuclear translocation activity" val=-0.2
compound=O=C(NC(=O)N1CCSCC1)c1c(Cl)cccc1Cl readout_name="nuclear translocation activity" val=0.2
compound=COC(=O)c1cn(C(=O)c2ccc(Cl)cc2)c2ccccc12 readout_name="nuclear translocation activity" val=-1.4
compound=CC(C)n1c(=S)[nH]c2cc(C(F)(F)F)ccc21 readout_name="nuclear translocation activity" val=-0.8

* * *

Assay: beta-catenin nuclear localization change in HeLa – imaging, HeLa cells, immunofluorescence, high-content, primary screen (AID 1665)
Details: at 5 µM; HeLa beta-catenin nuclear translocation, measured here: cell count, cytotoxicity flag
Hit rate of the full screen: of about 190,000 compounds, about 590 (0.31%) were called active. The full list was thinned out, with actives kept by preference.
READOUT_NAME: cell count (cells)

compound=COCCCn1c(-c2cccs2)nc2nc3ccccc3nc21 unit_of_measure=cells val=1370
compound=CSc1nc(N(C)NC(=O)c2cccc(C)c2)c2ccccc2n1 unit_of_measure=cells val=751
compound="COc1c(N2CCN(C(=S)Nc3ccccc3F)C(C)C2)c(F)cc2c(=O)c(C(=O)O)cn(C3CC3)c12 (stereo unspecified)" unit_of_measure=cells val=1380
compound=O=C(CSc1nnc(SCc2ccc(F)cc2)s1)Nc1ccc(C(=O)O)cc1 unit_of_measure=cells val=1300
compound=Nc1c(N(CCO)C(=O)C2CCCCC2)c(=O)[nH]c(=O)n1Cc1ccccc1 unit_of_measure=cells val=1350
compound=Cc1cc(C)n(-c2nc(C(F)(F)F)nc3ccccc23)n1 unit_of_measure=cells val=998
compound=CCCc1nnc(NC(=O)c2cc(OC)cc(OC)c2)s1 unit_of_measure=cells val=878
compound="CCCCCCCCCCCCN1C(=O)CSC1c1cccnc1 (stereo unspecified)" unit_of_measure=cells val=1170
compound=O=C(Cn1cnc2cc([N+](=O)[O-])ccc2c1=O)NC(=O)NCc1ccccc1 unit_of_measure=cells val=1320
compound=COC(=O)c1cc(NC(=O)c2ccco2)ccc1N1CCOCC1 unit_of_measure=cells val=1200
compound=CC(C)n1c(=S)[nH]c2cc(C(F)(F)F)ccc21 unit_of_measure=cells val=1090
